Target: Sucrase-isomaltase, intestinal (Rattus norvegicus, UniProt P23739)
Sequence (P23739 1-1013 limits assumed): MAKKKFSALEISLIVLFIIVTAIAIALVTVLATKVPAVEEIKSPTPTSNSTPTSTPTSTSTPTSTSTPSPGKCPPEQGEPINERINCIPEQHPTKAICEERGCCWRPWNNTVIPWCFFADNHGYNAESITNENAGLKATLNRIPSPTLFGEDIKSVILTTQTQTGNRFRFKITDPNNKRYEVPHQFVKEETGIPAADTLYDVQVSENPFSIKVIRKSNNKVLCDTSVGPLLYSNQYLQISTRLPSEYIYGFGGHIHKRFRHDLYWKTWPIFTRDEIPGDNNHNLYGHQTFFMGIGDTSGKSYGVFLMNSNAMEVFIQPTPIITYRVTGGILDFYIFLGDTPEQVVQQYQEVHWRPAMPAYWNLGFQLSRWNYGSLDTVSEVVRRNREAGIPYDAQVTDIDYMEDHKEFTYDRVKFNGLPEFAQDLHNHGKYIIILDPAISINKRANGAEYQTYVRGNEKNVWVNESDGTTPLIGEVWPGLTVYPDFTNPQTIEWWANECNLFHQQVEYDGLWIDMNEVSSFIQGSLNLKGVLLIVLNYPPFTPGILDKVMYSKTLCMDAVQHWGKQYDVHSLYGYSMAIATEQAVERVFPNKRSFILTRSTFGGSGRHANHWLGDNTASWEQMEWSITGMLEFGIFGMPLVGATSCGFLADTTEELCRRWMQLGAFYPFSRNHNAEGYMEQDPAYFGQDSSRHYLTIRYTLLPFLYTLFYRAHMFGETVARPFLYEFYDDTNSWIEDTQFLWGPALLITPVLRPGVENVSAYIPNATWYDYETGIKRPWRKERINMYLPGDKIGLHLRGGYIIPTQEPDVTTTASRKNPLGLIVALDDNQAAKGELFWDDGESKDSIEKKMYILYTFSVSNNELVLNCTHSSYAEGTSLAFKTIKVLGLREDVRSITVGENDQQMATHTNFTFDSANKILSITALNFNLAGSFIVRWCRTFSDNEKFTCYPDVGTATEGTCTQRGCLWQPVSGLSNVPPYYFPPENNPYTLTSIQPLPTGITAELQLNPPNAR
Sequence (P23739 1014-1841 limits assumed): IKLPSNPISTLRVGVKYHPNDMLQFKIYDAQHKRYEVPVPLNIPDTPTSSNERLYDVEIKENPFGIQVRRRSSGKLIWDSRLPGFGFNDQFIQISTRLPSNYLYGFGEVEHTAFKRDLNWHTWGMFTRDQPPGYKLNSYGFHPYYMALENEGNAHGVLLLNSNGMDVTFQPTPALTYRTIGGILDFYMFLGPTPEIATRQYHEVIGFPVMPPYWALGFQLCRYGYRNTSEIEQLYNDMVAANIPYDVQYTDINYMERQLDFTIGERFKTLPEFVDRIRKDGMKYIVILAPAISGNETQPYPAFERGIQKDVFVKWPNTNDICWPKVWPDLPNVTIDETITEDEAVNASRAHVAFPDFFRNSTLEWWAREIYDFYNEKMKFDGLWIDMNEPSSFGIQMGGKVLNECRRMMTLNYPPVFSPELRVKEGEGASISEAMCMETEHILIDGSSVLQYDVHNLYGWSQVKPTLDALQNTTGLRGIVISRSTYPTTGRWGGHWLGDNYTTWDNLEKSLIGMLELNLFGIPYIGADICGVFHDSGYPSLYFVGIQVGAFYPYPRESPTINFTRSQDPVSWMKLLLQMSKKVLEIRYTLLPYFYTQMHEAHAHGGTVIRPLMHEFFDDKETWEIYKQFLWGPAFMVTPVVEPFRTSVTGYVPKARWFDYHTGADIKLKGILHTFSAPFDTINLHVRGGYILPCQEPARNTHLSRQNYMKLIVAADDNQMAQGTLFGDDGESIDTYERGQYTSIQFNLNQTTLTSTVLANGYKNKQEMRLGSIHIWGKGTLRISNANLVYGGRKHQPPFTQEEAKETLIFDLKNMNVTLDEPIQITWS
Assay: Inhibition of rat small intestinal isomaltase after 30 mins by glucose-oxidase method
pIC50: −log10 of the molar value.
Measurement Name: pIC50

Compound	Target System	Assay Result
O=S(=O)([O-])O[C@H]([C@@H](O)[C@H](O)[C@@H](O)CO)[C@H](O)C[S@+]1C[C@@H](O)[C@H](O)[C@H]1CO	Sucrase-isomaltase, intestinal (Rattus norvegicus, UniProt P23739)	4.70
O=S(=O)([O-])O[C@@H]([C@@H](O)[C@H](O)[C@H](O)CO)[C@H](O)C[S@+]1C[C@@H](O)[C@H](O)[C@H]1CO	Sucrase-isomaltase, intestinal (Rattus norvegicus, UniProt P23739)	4.80
O=S(=O)([O-])O[C@@H]([C@@H](O)[C@H](O)[C@@H](O)CO)[C@H](O)C[S@+]1C[C@@H](O)[C@H](O)[C@H]1CO	Sucrase-isomaltase, intestinal (Rattus norvegicus, UniProt P23739)	4.96
O=S(=O)([O-])O[C@@H]([C@@H](O)[C@@H](O)[C@@H](O)CO)[C@H](O)C[S@+]1C[C@@H](O)[C@H](O)[C@H]1CO	Sucrase-isomaltase, intestinal (Rattus norvegicus, UniProt P23739)	5.19
O=S(=O)([O-])O[C@@H]([C@@H](O)[C@@H](O)[C@H](O)CO)[C@H](O)C[S@+]1C[C@@H](O)[C@H](O)[C@H]1CO	Sucrase-isomaltase, intestinal (Rattus norvegicus, UniProt P23739)	5.80
O=S(=O)([O-])O[C@H]([C@@H](O)[C@@H](O)[C@@H](O)CO)[C@H](O)C[S@+]1C[C@@H](O)[C@H](O)[C@H]1CO	Sucrase-isomaltase, intestinal (Rattus norvegicus, UniProt P23739)	4.68

P: O=S(=O)([O-])O[C@H]([C@@H](O)[C@@H](O)[C@H](O)CO)[C@H](O)C[S@+]1C[C@@H](O)[C@H](O)[C@H]1CO (mixture of isomers)
Q: O=S(=O)([O-])O[C@H]([C@@H](O)[C@H](O)[C@H](O)CO)[C@H](O)C[S@+]1C[C@@H](O)[C@H](O)[C@H]1CO
(Q) Could you kindly indicate whether P or Q has the higher pIC50 value? Provide the label of your selected option as the answer.
(A) P

----------
Target: Sucrase-isomaltase, intestinal (Rattus norvegicus)
Assay: Inhibition of rat small intestinal sucrase after 30 mins by glucose-oxidase method
Measurement Name: IC50 (µM)

Compound String	Unit Abbreviation	Assay Result
O=S(=O)([O-])O[C@H]([C@@H](O)[C@H](O)[C@H](O)CO)[C@H](O)C[S@+]1C[C@@H](O)[C@H](O)[C@H]1CO	µM	55

P: O=S(=O)([O-])O[C@@H]([C@@H](O)[C@H](O)[C@H](O)CO)[C@H](O)C[S@+]1C[C@@H](O)[C@H](O)[C@H]1CO
Q: O=S(=O)([O-])O[C@@H]([C@@H](O)[C@@H](O)[C@H](O)CO)[C@H](O)C[S@+]1C[C@@H](O)[C@H](O)[C@H]1CO
R: O=S(=O)([O-])O[C@@H]([C@@H](O)[C@H](O)[C@@H](O)CO)[C@H](O)C[S@+]1C[C@@H](O)[C@H](O)[C@H]1CO
S: O=S(=O)([O-])O[C@@H]([C@@H](O)[C@@H](O)[C@@H](O)CO)[C@H](O)C[S@+]1C[C@@H](O)[C@H](O)[C@H]1CO
(Q) Put these in order: smallest IC50 first, largest last. Reply with the item labels sorted in the order that was asked for.
(A) S, Q, R, P
